- TESTED_ON: Xenopus tropicalis α4β2 nAChR, α4β2(FS) (Xenopus tropicalis, UniProt A0A8J0QAC2+A4IIS6)
- Construct: full-length single subunits in pCMV-SPORT6 (Dharmacon), cRNA co-injected in Xenopus laevis oocytes; stoichiometry unknown
- PROTOCOL_DESCRIPTION: two-electrode voltage clamp, oocytes, concentration-response
MEASURED_PROPERTY: pEC50
By convention, pEC50 is the negative base-10 log of a molar concentration.

Looking up `CC(=O)OCC[N+](C)(C)C` , I found its pEC50 recorded as 7.33

---

- TESTED_ON: Xenopus tropicalis α4β2 nAChR, α4β2(FS) (Xenopus tropicalis, UniProt A0A8J0QAC2+A4IIS6, A4IIS6:F131L/A4IIS6:S133C)
- Construct: full-length single subunits in pCMV-SPORT6 (Dharmacon), cRNA co-injected in Xenopus laevis oocytes; stoichiometry unknown
- PROTOCOL_DESCRIPTION: two-electrode voltage clamp, oocytes, concentration-response
MEASURED_PROPERTY: EC50 (µM)
Unit µM implied. Number only.

Looking up `CC(=O)OCC[N+](C)(C)C` , I found its EC50 recorded as 0.021
